From: patent US20110136819A1

Overview of recorded IC50 for various compounds
Target: Met kinase (Homo sapiens)
Sequence (P08581 25-1390): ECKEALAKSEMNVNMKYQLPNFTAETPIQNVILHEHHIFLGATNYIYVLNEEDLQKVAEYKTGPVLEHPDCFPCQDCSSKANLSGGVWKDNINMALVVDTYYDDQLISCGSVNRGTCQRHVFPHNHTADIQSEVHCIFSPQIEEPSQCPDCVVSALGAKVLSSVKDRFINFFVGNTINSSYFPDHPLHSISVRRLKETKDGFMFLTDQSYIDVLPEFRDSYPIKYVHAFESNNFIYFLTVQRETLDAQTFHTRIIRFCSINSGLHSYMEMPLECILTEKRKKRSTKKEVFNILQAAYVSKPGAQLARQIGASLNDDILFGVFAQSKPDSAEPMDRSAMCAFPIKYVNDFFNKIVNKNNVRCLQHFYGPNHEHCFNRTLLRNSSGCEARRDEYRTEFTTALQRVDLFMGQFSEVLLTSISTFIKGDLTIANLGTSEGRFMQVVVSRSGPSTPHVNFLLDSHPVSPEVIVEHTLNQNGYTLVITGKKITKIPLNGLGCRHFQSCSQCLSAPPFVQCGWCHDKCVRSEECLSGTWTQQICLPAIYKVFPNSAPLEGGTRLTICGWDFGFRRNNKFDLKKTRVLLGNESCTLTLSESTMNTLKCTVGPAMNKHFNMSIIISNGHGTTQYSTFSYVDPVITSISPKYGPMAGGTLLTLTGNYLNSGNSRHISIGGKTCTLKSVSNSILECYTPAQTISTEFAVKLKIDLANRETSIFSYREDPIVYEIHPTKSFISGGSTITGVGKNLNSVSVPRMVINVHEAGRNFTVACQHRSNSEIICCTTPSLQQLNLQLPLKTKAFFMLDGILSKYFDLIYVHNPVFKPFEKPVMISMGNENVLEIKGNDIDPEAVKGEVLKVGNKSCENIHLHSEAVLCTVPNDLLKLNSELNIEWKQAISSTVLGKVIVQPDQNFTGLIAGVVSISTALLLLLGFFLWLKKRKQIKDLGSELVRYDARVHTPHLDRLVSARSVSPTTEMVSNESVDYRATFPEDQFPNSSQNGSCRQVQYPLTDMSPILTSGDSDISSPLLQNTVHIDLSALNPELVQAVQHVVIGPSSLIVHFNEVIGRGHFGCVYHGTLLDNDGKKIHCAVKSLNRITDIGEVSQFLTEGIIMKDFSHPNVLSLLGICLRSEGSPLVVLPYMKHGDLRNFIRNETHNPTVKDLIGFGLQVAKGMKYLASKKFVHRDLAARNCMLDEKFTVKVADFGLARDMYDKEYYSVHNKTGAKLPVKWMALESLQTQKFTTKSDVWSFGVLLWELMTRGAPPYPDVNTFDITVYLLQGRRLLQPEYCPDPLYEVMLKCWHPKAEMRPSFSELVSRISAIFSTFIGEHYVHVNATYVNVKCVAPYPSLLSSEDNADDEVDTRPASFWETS
Structures can show the parent of a compound that is named as a salt.

{"COMPOUND": "CN1CCN(CCCOC(=O)Nc2cccc(Cn3nc(-c4cc(F)c(F)c(F)c4)ccc3=S)c2)CC1 [Compound A2, formate]", "IC50": "10 to 1000 nM"}
{"COMPOUND": "Cc1cnc(-c2cccc(Cn3nc(-c4cc(F)cc(F)c4)ccc3=S)c2)s1", "IC50": "10 to 1000 nM"}
{"COMPOUND": "CN1CCN(CCCOC(=O)Nc2cccc(Cn3nc(-c4cc(F)cc(F)c4)ccc3=S)c2)CC1", "IC50": "10 to 1000 nM"}
